# System Name: GST-Xa-hAAK1 (Homo sapiens, UniProt Q2M2I8)
# Construct: GST (N); Factor Xa cleavage site (Xa) (internal)
# Sequence (Q2M2I8 whole entry): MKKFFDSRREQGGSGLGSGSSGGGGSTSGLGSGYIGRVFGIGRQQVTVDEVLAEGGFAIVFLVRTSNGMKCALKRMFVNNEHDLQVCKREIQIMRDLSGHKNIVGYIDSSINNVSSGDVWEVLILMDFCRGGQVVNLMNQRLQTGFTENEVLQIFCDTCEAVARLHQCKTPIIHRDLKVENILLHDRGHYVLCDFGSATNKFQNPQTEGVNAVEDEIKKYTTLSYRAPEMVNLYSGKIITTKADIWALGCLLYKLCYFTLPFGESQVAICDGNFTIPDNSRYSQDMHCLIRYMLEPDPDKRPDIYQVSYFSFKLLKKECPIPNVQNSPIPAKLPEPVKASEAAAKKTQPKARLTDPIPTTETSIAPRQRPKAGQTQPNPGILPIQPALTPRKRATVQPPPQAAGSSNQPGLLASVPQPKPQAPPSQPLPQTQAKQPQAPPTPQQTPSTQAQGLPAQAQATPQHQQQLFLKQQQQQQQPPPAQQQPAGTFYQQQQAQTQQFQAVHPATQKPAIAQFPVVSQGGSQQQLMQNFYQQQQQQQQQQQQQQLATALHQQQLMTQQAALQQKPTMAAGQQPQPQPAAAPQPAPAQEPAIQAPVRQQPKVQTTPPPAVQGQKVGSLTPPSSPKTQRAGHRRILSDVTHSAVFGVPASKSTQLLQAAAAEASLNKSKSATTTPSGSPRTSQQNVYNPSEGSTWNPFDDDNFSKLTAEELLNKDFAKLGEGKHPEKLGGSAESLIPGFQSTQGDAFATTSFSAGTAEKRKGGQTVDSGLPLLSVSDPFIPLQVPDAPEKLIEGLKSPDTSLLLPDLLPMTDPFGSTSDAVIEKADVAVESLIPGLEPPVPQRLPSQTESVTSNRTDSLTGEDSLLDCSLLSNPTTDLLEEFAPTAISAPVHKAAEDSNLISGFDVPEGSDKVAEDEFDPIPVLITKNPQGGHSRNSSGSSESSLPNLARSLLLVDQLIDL
# Assay Explanation: AAK1 Kinase Assay
# Condition Details: bacterially expressed GST-Xa-hAAK1 3.5 nM; ATP 22 μM; fluoresceinated peptide 1.5 μM; 3 hours at room temperature; Caliper LabChip 3000
Property Measured: pIC50
Answer as the number alone; pIC50 is minus log10 of concentration in mol/L.

Worked examples, 3 molecules total:
// query Field: pIC50 (GST-Xa-hAAK1 (Homo sapiens, UniProt Q2M2I8)). Entry: CC(=O)NCC(=O)Nc1cc(-c2ccc(OC[C@@](C)(N)CC(C)C)c(C(F)(F)F)c2)ccn1
// result 9.30

// query Given the entry Cc1cc(-c2ccnn3cc(C(F)(F)F)nc23)cnc1OC[C@](C)(N)CC(C)C , what pIC50 was observed with GST-Xa-hAAK1 (Homo sapiens, UniProt Q2M2I8)?
// result 6.22

// query Notebook: pull reported pIC50 for GST-Xa-hAAK1 (Homo sapiens, UniProt Q2M2I8), entry CC(C)C[C@](C)(N)COc1ccc(-c2ncnc3c2ccn3C)cc1C#N
// result 7.62

Please examine the following record next.
// query Under GST-Xa-hAAK1 (Homo sapiens, UniProt Q2M2I8): pIC50 value of CC(C)C[C@](C)(N)COc1ncc(-c2cc(NC3CCOC3)ncn2)cc1Cl (stereo partly shown) ?
// result 6.45

* * *

# System Name: GST-Xa-hAAK1 (Homo sapiens)
# Construct: GST (N); Factor Xa cleavage site (Xa) (internal)
# Assay Explanation: AAK1 Kinase Assay
# Condition Details: bacterially expressed GST-Xa-hAAK1 3.5 nM; ATP 22 μM; fluoresceinated peptide 1.5 μM; 3 hours at room temperature; Caliper LabChip 3000
Below, each entry is listed with its recorded pIC50.
The read-out pIC50 is expressed as -log10 of concentration in moles per litre.

Worked examples follow.
// query Param item = CC(C)C[C@](C)(N)COc1ccc(-c2ccnc(NC(=O)CC3CCCCC3)c2)cc1C(F)(F)F ; retrieve measured pIC50.
// result 8.70

// query Sample CC(C)C[C@](C)(N)COc1ccc(-c2ncnc3[nH]ccc23)cc1Cl — what was its pIC50?
// result 8.77

// query pIC50 value for entry Cc1cc(-c2ccnc3ccnn23)ccc1OC[C@@](C)(N)CC(C)C
// result 9.30

***
// query // lookup pIC50 for CC(C)C[C@](C)(N)COc1ccc(-c2ncnc3c2ccn3C)cc1F
// result 7.01

// query Look up pIC50: CC(C)C[C@](C)(N)COc1ccc(-c2ccnc3cc(C(F)(F)F)nn23)cc1F
// result 6.58

// query If you can, please state the reported pIC50 value of CC(C)C[C@](C)(N)COc1ccc(-c2ccnc(NC3CCOCC3)c2)cc1C#N .
// result 7.27

// query Name the reported pIC50 value associated with the molecule CC(C)C[C@](C)(N)COc1ccc(-c2ccnn3cc(C4CC4)nc23)cc1F
// result 7.82

// query Endpoint output: pIC50 of Cc1nccc(-c2ccc(OCC(C)(C)N)c(C)n2)n1 . Value?
// result 6.79

// query Which pIC50 value is on record for Cc1nc(-c2cnn3cc(C#N)cnc23)ccc1OC[C@@](C)(N)CC(C)C ?
// result 7.96
